Protein target, amino acids: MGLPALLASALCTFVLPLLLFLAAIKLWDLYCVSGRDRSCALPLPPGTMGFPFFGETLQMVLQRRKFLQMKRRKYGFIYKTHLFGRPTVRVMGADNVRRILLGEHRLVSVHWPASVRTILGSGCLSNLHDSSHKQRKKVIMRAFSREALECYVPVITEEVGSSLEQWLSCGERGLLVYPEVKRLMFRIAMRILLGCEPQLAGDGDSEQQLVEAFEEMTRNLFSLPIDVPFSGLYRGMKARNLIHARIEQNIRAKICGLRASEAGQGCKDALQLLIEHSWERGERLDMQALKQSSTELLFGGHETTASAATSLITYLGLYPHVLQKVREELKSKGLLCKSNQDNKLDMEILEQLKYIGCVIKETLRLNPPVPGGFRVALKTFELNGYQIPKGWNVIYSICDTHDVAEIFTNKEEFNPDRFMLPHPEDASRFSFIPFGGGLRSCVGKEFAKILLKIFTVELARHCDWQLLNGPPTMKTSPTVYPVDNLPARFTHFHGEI
pIC50: −log10 of the molar value.
Assay Metric: pIC50

[P] COC(=O)c1ccc(C(c2ccc(Nc3nc4ccccc4o3)cc2)n2ccnc2)cc1 (stereo not given)
[Q] Oc1ccc(C(c2ccc(Nc3nc4ccccc4o3)cc2)n2ccnc2)cc1 (stereo not given)
[R] O=C(O)c1ccc(C(c2ccc(Nc3nc4ccccc4o3)cc2)n2ccnc2)cc1 (stereo not given)
Task item: Sort (3 molecules) by pIC50: min first. Please list the labels according to the requested order.
Reply: R, P, Q
(R: 4.30, P: 4.70, Q: 4.92)
